target: glutathione-S-transferase (GST) tagged LXRalpha LBD (ligand binding domain) (Homo sapiens); construct: purchased Invitrogen pv4655; assay: LanthaScreen TR-FRET Liver X Receptor Coactivator Assay, co-activator recruitment to LXRalpha LBD; assay type: biochemical; settings: efficacy at max dose, in relation to reference dual agonist T0901317; read-out: LXR alpha Activity @ max dose (%)
Sequence (Q13133 209-447 limits assumed): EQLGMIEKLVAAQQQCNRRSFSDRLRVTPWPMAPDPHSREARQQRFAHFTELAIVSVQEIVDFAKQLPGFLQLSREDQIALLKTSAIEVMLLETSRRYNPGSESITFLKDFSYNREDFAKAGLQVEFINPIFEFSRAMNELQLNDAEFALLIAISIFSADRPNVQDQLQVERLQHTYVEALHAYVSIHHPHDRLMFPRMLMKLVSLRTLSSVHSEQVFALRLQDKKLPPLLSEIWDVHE
Quantity Kind: Emax (%)

Compound String | Numeric Value
CNC(=O)c1ccc(N2CCC(OC3CCN(C(=O)C4(c5ccccc5F)CCCC4)CC3)CC2)cc1Cl | 27
O=C(c1ccc(N2CCC(CC3CCN(C(=O)[C@](O)(c4cc(Cl)cc(Cl)c4)C(F)(F)F)CC3)CC2)cc1Cl)N1CC[C@@H](O)C1 | 0

(1) COc1cccc([C@@](O)(C(=O)N2CCC(OC3CCN(c4ccc(C(=O)N(C)C)c(Cl)n4)CC3)CC2)C(F)(F)F)c1
(2) CCOc1cccc([C@@](O)(C(=O)N2CCC(CC3CN(c4ccc(C(=O)N(C)C)c(OC)n4)C3)CC2)C(F)(F)F)c1
(3) CCOc1cccc([C@@](O)(C(=O)N2CCC(CC3CCN(c4ccc(C(=O)NC)c(Cl)n4)CC3)CC2)C(F)(F)F)c1
## Task Put the entries in order of Emax, starting with the largest number. Enter labels, ranked according to the request.
## Result 1, 3, 2

====

target: glutathione-S-transferase (GST) tagged LXRbeta LBD (ligand binding domain) (Homo sapiens); construct: purchased Invitrogen pv4658.pps; assay: LanthaScreen TR-FRET Liver X Receptor Coactivator Assay, co-activator recruitment to LXRbeta LBD; type: biochemical; conditions: efficacy at max dose, in relation to reference dual agonist T0901317; read-out: LXR beta Activity @ max dose (%)
Sequence (P55055 222-460 limits assumed): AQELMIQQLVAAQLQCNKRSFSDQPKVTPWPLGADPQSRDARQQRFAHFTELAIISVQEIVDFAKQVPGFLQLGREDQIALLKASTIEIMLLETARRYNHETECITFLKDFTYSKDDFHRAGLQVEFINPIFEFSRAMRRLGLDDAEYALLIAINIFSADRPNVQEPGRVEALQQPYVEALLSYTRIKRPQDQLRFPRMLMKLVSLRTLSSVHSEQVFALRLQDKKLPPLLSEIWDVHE
Source text: […]
Quantity Kind: Emax (%)

Compound | Units Symbol | Emax
CN(C)C(=O)c1ccc(N2CCC(CC3CCN(C(=O)C(O)(c4cc(Cl)cc(Cl)c4)C(F)(F)F)CC3)CC2)nc1Cl (centres unmarked) | % | 53
CN(C)C(=O)c1ccc(N2CCC(OC3CCN(C(=O)[C@](O)(c4cc(Cl)cc(Cl)c4)C(F)(F)F)CC3)CC2)cc1Cl | % | 102
CN(C)C(=O)c1ccc(N2CCC(OC3CCN(C(=O)C4(C(F)(F)F)CCCCC4)CC3)CC2)cc1Cl | % | 75
CN(C)C(=O)c1ccc(N2CCC(CC3CCN(C(=O)C(F)(F)c4ccccc4)CC3)CC2)nc1Cl | % | 75
CNC(=O)c1ccc(N2CCC(CC3CCN(C(=O)[C@](O)(c4cccc(Br)c4)C(F)(F)F)CC3)CC2)cc1Cl | % | 82

(P) CN(C)C(=O)c1ccc(N2CCC(CC3CCN(C(=O)[C@](O)(c4ccccc4)C(F)(F)F)CC3)CC2)cc1
(Q) CN(C)C(=O)c1ccc(N2CCC(CC3CCN(C(=O)[C@](N)(c4ccccc4)C(F)(F)F)CC3)CC2)nc1Cl
## Task Which gives the smaller Emax number: P or Q ? Write down the label attached to your selection.
## Result P
(P: 73%, Q: 151%)

(1) CNC(=O)c1ccc(N2CCC(CC3CCN(C(=O)C(O)(c4cccc(C)c4)C(F)(F)F)CC3)CC2)cc1Cl (centres unmarked)
(2) CNC(=O)c1ccc(N2CCC(CC3CCN(C(=O)C(O)(c4cc(F)cc(F)c4)C(F)(F)F)CC3)CC2)cc1Cl (centres unmarked)
## Task Which gives the smaller Emax number: 1 or 2 ? Write down the label attached to your selection.
## Result 1

====

biological target: glutathione-S-transferase (GST) tagged LXRbeta LBD (ligand binding domain) (Homo sapiens); construct: purchased Invitrogen pv4658.pps; experiment: LanthaScreen TR-FRET Liver X Receptor Coactivator Assay, co-activator recruitment to LXRbeta LBD; assay type: biochemical; settings: co-activator recruitment to GST-LXRbeta LBD, TR-FRET; read-out: LXR beta IP (Inflection Point, potency)
Quantity Kind: EC50 (nM)

As a guide, the following entries are already answered.
Compound String | Tested Target | Units Symbol | EC50
CN(C)C(=O)c1ccc(N2CCC(CC3CCN(S(=O)(=O)c4cc(F)cc(F)c4)CC3)CC2)cc1Cl | glutathione-S-transferase (GST) tagged LXRbeta LBD (ligand binding domain) (Homo sapiens) | nM | 75
CN(C)C(=O)c1ccc(N2CCC(CC3CCN(S(=O)(=O)c4ccc(F)cc4)CC3)CC2)cc1Cl | glutathione-S-transferase (GST) tagged LXRbeta LBD (ligand binding domain) (Homo sapiens) | nM | 497
COc1cccc(S(=O)(=O)N2CC(CC3CCN(c4ccc(C(=O)N(C)C)c(Cl)c4)CC3)C2)c1 | glutathione-S-transferase (GST) tagged LXRbeta LBD (ligand binding domain) (Homo sapiens) | nM | 96
CN(C)C(=O)c1ccc(N2CCC(CC3CCN(S(=O)(=O)c4cccc(Cl)c4)CC3)CC2)cc1Cl | glutathione-S-transferase (GST) tagged LXRbeta LBD (ligand binding domain) (Homo sapiens) | nM | 74

(1) CN(C)C(=O)c1ccc(N2CCC(CC3CCN(S(=O)(=O)c4cccc(OC(F)F)c4)CC3)CC2)cc1Cl
(2) CN(C)C(=O)c1ccc(N2CCC(CC3CCN(S(=O)(=O)c4cccc(F)c4)CC3)CC2)cc1Cl
## Task Of 1 and 2 , which one carries the higher reported EC50? Write down the label attached to your selection.
## Result 1

====

target: glutathione-S-transferase (GST) tagged LXRbeta LBD (ligand binding domain) (Homo sapiens); construct: purchased Invitrogen pv4658.pps; assay: LanthaScreen TR-FRET Liver X Receptor Coactivator Assay, co-activator recruitment to LXRbeta LBD; format: biochemical; details: potency (Inflection Point, IP), co-activator recruitment to LXRbeta LBD, in relation to T0901317; read-out: LXR beta IP
pEC50: −log10 of the molar value.
Quantity Kind: pEC50

Molecule | Numeric Value
CN(C)C(=O)c1ccc(N2CCC(CC3CN(C(=O)[C@](O)(c4cccc(OC(F)(F)F)c4)C(F)(F)F)C3)CC2)cc1Cl [Example 2-68] | 7.66
Cc1cc(N2CCC(CC3CCN(C(=O)[C@](O)(c4ccccc4)C(F)(F)F)CC3)CC2)ccc1C(=O)N(C)C | 7.60
CNC(=O)c1ccc(N2CCC(CC3CN(C(=O)[C@](O)(c4cccc(OC)c4)C(F)(F)F)C3)CC2)cc1Cl | 6.87

(I) CN(C)C(=O)c1ccc(N2CCC(CC3CCN(C(=O)[C@](N)(c4ccccc4)C(F)(F)F)CC3)CC2)cc1Cl (stereo in doubt)
(II) COc1cccc([C@@](O)(C(=O)N2CC(CC3CCN(c4ccc(C(=O)N(C)C)c(Cl)n4)CC3)C2)C(F)(F)F)c1
(III) C[C@H]1CCCN1C(=O)c1ccc(N2CCC(CC3CCN(C(=O)[C@](O)(c4ccccc4)C(F)(F)F)CC3)CC2)cc1Cl
(IV) CC(C)c1cccc([C@@](O)(C(=O)N2CCC(CC3CCN(c4ccc(C(=O)N(C)C)c(Cl)c4)CC3)CC2)C(F)(F)F)c1
## Task rank_up(items): orders items by reported pEC50 in ascending numerical order. Enter labels, ranked according to the request.
## Result I, III, II, IV
(I: 6.94, III: 7.42, II: 7.66, IV: 8.22)

(1) CCOc1cccc([C@@](O)(C(=O)N2CCC(SC3CCN(c4ccc(C(=O)NC)c(Cl)n4)CC3)CC2)C(F)(F)F)c1
(2) COc1cc(Cl)cc([C@](O)(C(=O)N2CCC(CC3CCN(c4ccc(C(=O)N(C)C)c(Cl)n4)CC3)CC2)C(F)(F)F)c1
## Task Which gives the smaller pEC50 number: 1 or 2 ? Write down the label attached to your selection.
## Result 2
(2: 7.33, 1: 7.66)

====

target: glutathione-S-transferase (GST) tagged LXRbeta LBD (ligand binding domain) (Homo sapiens); construct: purchased Invitrogen pv4658.pps; experiment: LanthaScreen TR-FRET Liver X Receptor Coactivator Assay, co-activator recruitment to LXRbeta LBD; assay type: biochemical; conditions: efficacy at max dose, in relation to reference dual agonist T0901317; read-out: LXR beta Activity @ max dose (%)
Quantity Kind: Emax (%)

As a guide, the following entries are already answered.
Compound | Emax (%)
Cc1cc(N2CCC(CC3CN(C(=O)[C@](O)(c4cc(F)cc(Cl)c4)C(F)(F)F)C3)CC2)ccc1C(=O)N(C)C [Example 2-81] | 103
CN(C)C(=O)c1ccc(N2CCC(CC3(C)CCN(C(=O)[C@](O)(c4ccccc4)C(F)(F)F)CC3)CC2)cc1Cl [Example 2-44] | 37
CNC(=O)c1ccc(N2CCC(CC3CCN(C(=O)[C@](O)(c4cccc(C(C)C)c4)C(F)(F)F)CC3)CC2)nc1Cl [Example 7-149] | 91

(P) CN(C)C(=O)c1ccc(N2CCC(CC3CCN(C(=O)[C@](O)(c4cccc(OC5CC5)c4)C(F)(F)F)CC3)CC2)nc1Cl [Example 7-106]
(Q) CN(CCn1cncn1)C(=O)c1ccc(N2CCC(CC3CCN(C(=O)[C@](O)(c4cc(Cl)cc(Cl)c4)C(F)(F)F)CC3)CC2)cc1Cl [Example 4-26]
(R) CN(C)C(=O)c1ccc(N2CCC(CC3CCN(C(=O)C(O)(c4cc(F)cc(F)c4)C(F)(F)F)CC3)CC2)nc1Cl (stereo not drawn) [Example 7-82]
## Task rank_up(items): orders items by reported Emax in ascending numerical order. Enter labels, ranked according to the request.
## Result P, Q, R
(P: 41%, Q: 67%, R: 111%)
